The reported measurements were obtained from patent US20070129367A1.

# target of assay: human cannabinoid CB2 receptor (Homo sapiens)
# Construct: expressed in transfected cells; host or cells: Saccharomyces cerevisiae strain MMY23 (cassette integrated at the ura3 locus, GPD promoter)
# test details: Cannabinoid CB2 receptor agonist activity in yeast (Saccharomyces cerevisiae) cells expressing the receptor, FDGlu fluorescence readout
# Type: cell-based
pEC50: −log10 of the molar value.
Exercise: for every item that follows, state its recorded pEC50.

COc1ccc(CNC(=O)c2cnc(Nc3cccc(Cl)c3)cc2C(C)C)cc1	6.00 to 6.52

I'm hoping you can list pEC50 for every compound here, please.
1. O=C(NCc1ccncc1)c1ccc(Nc2cccc(Cl)c2)nc1C(F)(F)F
2. O=C(NCc1ccnc(F)c1)c1cnc(Nc2cc(Cl)cc(Cl)c2)cc1C(F)(F)F
3. CC(C)c1cc(Nc2cccc(Cl)c2)ncc1C(=O)NCc1ccccc1
4. CC(C)c1cc(Nc2cccc(OC(F)(F)F)c2)ncc1C(=O)NCc1ccc(F)cc1

Marked response:
> 6.52
> 6.52
> 6.52
6.00 to 6.52

###

Exercise: for every item that follows, state its recorded pEC50.
# target of assay: human cannabinoid CB2 receptor (Homo sapiens)
# Construct: expressed in transfected cells; host or cells: Saccharomyces cerevisiae strain MMY23 (cassette integrated at the ura3 locus, GPD promoter)
# test details: Cannabinoid CB2 receptor agonist activity in yeast (Saccharomyces cerevisiae) cells expressing the receptor, FDGlu fluorescence readout
# Type: cell-based
pEC50: −log10 of the molar value.

Please review the following examples before continuing.
CC(C)c1cc(Nc2cccc(Cl)c2F)ncc1C(=O)NCc1ccc(F)cc1	6.00 to 6.52
O=C(NCc1ccc(F)cc1)c1cnc(Nc2cccc(F)c2)cc1C(F)(F)F	> 6.52
Cc1ccc(Cl)cc1Nc1cc(C(F)(F)F)c(C(=O)NCc2ccncc2)cn1	> 6.52
CC(C)c1cc(Nc2cccc(F)c2)ncc1C(=O)NCc1ccc(F)cc1	> 6.52

I'm hoping you can list pEC50 for every compound here, please.
1. O=C(NCc1ccc(F)cc1)c1cnc(Nc2ccc(Cl)cc2Cl)cc1C(F)(F)F
2. CC(C)c1cc(Nc2ccc(Br)cc2Cl)ncc1C(=O)NCc1ccc(F)cc1
3. O=C(NCc1ccnc(F)c1)c1cnc(Nc2cccc(Cl)c2)cc1C(F)(F)F
4. CC(C)c1cc(Nc2cc(Cl)ccc2Cl)ncc1C(=O)NCc1ccc(F)cc1
5. Cc1c(Cl)cccc1Nc1cc(C(C)C)c(C(=O)NCc2ccc(F)cc2)cn1

Marked response:
1. > 6.52
2. > 6.52
3. > 6.52
4. 6.00 to 6.52
5. 6.00 to 6.52

###

Exercise: for every item that follows, state its recorded EC50.
# target of assay: human cannabinoid CB2 receptor (Homo sapiens)
# Construct: expressed in transfected cells; host or cells: Saccharomyces cerevisiae strain MMY23 (cassette integrated at the ura3 locus, GPD promoter)
# test details: Cannabinoid CB2 receptor agonist activity in yeast (Saccharomyces cerevisiae) cells expressing the receptor, FDGlu fluorescence readout
# Assay type: cell-based

Please review the following examples before continuing.
Cc1cccc(Nc2cc(C(C)C)c(C(=O)NCc3ccc(F)cc3)cn2)c1C#N	300 to 1000 nM
CC(C)c1cc(Nc2ccc(Cl)cc2Br)ncc1C(=O)NCc1ccc(F)cc1	< 300 nM
CC(C)c1cc(Nc2ccc(F)cc2Cl)ncc1C(=O)NCc1ccc(F)cc1	< 300 nM
CC(C)c1cc(Nc2cccc(Cl)c2)ncc1C(=O)NCc1ccc(C#N)cc1	300 to 1000 nM

Then there is this compound:
# lookup: O=C(NCc1ccnc(F)c1)c1cnc(Nc2cccc(Cl)c2Cl)cc1C(F)(F)F on human cannabinoid CB2 receptor (Homo sapiens), EC50 = < 300 nM

###

Exercise: for every item that follows, state its recorded EC50.
# target of assay: human cannabinoid CB2 receptor (Homo sapiens, UniProt P34972)
# Construct: expressed in transfected cells; host or cells: Saccharomyces cerevisiae strain MMY23 (cassette integrated at the ura3 locus, GPD promoter)
# Sequence (P34972 whole entry): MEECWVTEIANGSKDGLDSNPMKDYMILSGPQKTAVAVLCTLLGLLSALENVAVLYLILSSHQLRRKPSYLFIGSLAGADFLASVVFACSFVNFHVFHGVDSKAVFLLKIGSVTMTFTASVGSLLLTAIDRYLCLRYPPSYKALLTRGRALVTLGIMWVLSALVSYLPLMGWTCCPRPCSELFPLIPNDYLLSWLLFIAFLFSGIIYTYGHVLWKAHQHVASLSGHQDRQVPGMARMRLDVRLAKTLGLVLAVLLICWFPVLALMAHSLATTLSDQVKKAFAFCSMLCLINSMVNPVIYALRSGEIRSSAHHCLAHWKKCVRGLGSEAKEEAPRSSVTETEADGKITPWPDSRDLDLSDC
# test details: Cannabinoid CB2 receptor agonist activity in yeast (Saccharomyces cerevisiae) cells expressing the receptor, FDGlu fluorescence readout
# Type: cell-based
# condition description: agonist activity, yeast cells, 24 hours at 30° C.; read-out: EC50 at the cloned human cannabinoid CB2 receptor

I'm hoping you can list EC50 for every molecule here, please.
1. Cc1cc(C#N)ccc1Nc1cc(C(C)C)c(C(=O)NCc2ccc(F)cc2)cn1
2. CC(C)c1cc(Nc2cccc(C#N)c2)ncc1C(=O)NCc1ccc(F)cc1
3. CC(C)c1cc(Nc2ccc(F)c(Cl)c2)ncc1C(=O)NCc1ccc(F)cc1
4. CC(C)c1cc(Nc2ccc(Br)c(F)c2)ncc1C(=O)NCc1ccc(F)cc1
5. CC(C)c1cc(Nc2cccc(Cl)c2)ncc1C(=O)NCc1ccc(C(N)=O)cc1
6. CC(C)c1cc(Nc2cc(Cl)ccc2F)ncc1C(=O)NCc1ccc(F)cc1

Marked response:
["< 300 nM", "< 300 nM", "< 300 nM", "< 300 nM", "300 to 1000 nM", "< 300 nM"]

I'm hoping you can list EC50 for every molecule here, please.
1. CC(C)c1cc(Nc2ccc(C(F)(F)F)c(F)c2)ncc1C(=O)NCc1ccc(F)cc1
2. CC(C)c1cc(Nc2ccc(C#N)cc2)ncc1C(=O)NCc1ccc(F)cc1
3. CC(C)c1cc(Nc2ccc(Br)cc2F)ncc1C(=O)NCc1ccc(F)cc1

Marked response:
1. 300 to 1000 nM
2. < 300 nM
3. 300 to 1000 nM

###

# target of assay: human cannabinoid CB2 receptor (Homo sapiens, UniProt P34972)
# Construct: expressed in transfected cells; host or cells: Saccharomyces cerevisiae strain MMY23 (cassette integrated at the ura3 locus, GPD promoter)
# test details: Cannabinoid CB2 receptor agonist activity in yeast (Saccharomyces cerevisiae) cells expressing the receptor, FDGlu fluorescence readout
# Assay type: cell-based
observation type: EC50

Please review the following examples before continuing.
CC(C)c1cc(Nc2cccc(C(F)(F)F)c2)ncc1C(=O)NCc1ccc(F)cc1	0.3 to 1 µM
O=C(NCc1ccc(F)cc1)c1cnc(Nc2cccc(Cl)c2)cc1C(F)(F)F	< 0.3 µM
O=C(NCc1ccncc1)c1cnc(Nc2cccc(Cl)c2)cc1C(F)(F)F	< 0.3 µM
O=C(NCc1ccc(F)cc1)c1cnc(Nc2ccc(Cl)c(Cl)c2)cc1C(F)(F)F	< 0.3 µM
Cc1cccc(Nc2cc(C(C)C)c(C(=O)NCc3ccc(F)cc3)cn2)c1	0.3 to 1 µM
CC(C)c1cc(Nc2ccc(Br)c(Cl)c2)ncc1C(=O)NCc1ccc(F)cc1	0.3 to 1 µM
O=C(NCc1ccc(F)cc1)c1cnc(Nc2cc(Cl)cc(Cl)c2)cc1C(F)(F)F	< 0.3 µM

Then there is this compound:
# lookup: COc1cccc(Nc2cc(C(C)C)c(C(=O)NCc3ccc(F)cc3)cn2)c1 on human cannabinoid CB2 receptor (Homo sapiens, UniProt P34972), EC50 = 0.3 to 1 µM

###

Exercise: for every item that follows, state its recorded EC50.
# target of assay: human cannabinoid CB2 receptor (Homo sapiens, UniProt P34972)
# Construct: expressed in transfected cells; host or cells: Saccharomyces cerevisiae strain MMY23 (cassette integrated at the ura3 locus, GPD promoter)
# test details: Cannabinoid CB2 receptor agonist activity in yeast (Saccharomyces cerevisiae) cells expressing the receptor, FDGlu fluorescence readout
# Type: cell-based

Please review the following examples before continuing.
CC(C)c1cc(Nc2ccc(Cl)cc2Cl)ncc1C(=O)NCc1ccc(F)cc1	< 0.3 µM
Cc1cc(Cl)ccc1Nc1cc(C(F)(F)F)c(C(=O)NCc2ccncc2)cn1	< 0.3 µM
CC(C)c1cc(Nc2cccc(Cl)c2)ncc1C(=O)NCc1ccc(F)c(F)c1	0.3 to 1 µM

Then there is this molecule:
Lab note: O=C(NCc1ccnc(F)c1)c1cnc(Nc2ccc(Cl)cc2Cl)cc1C(F)(F)F gave EC50 of < 0.3 µM
